Target: human α2δ2 (hα2δ2) calcium channel subunit (Homo sapiens)
Construct: covered the whole open reading frame of hα2δ2 cDNA; expressed in transfected cells
Sequence (Q9NY47 19-1145 isoform Q9NY47-3 limits assumed): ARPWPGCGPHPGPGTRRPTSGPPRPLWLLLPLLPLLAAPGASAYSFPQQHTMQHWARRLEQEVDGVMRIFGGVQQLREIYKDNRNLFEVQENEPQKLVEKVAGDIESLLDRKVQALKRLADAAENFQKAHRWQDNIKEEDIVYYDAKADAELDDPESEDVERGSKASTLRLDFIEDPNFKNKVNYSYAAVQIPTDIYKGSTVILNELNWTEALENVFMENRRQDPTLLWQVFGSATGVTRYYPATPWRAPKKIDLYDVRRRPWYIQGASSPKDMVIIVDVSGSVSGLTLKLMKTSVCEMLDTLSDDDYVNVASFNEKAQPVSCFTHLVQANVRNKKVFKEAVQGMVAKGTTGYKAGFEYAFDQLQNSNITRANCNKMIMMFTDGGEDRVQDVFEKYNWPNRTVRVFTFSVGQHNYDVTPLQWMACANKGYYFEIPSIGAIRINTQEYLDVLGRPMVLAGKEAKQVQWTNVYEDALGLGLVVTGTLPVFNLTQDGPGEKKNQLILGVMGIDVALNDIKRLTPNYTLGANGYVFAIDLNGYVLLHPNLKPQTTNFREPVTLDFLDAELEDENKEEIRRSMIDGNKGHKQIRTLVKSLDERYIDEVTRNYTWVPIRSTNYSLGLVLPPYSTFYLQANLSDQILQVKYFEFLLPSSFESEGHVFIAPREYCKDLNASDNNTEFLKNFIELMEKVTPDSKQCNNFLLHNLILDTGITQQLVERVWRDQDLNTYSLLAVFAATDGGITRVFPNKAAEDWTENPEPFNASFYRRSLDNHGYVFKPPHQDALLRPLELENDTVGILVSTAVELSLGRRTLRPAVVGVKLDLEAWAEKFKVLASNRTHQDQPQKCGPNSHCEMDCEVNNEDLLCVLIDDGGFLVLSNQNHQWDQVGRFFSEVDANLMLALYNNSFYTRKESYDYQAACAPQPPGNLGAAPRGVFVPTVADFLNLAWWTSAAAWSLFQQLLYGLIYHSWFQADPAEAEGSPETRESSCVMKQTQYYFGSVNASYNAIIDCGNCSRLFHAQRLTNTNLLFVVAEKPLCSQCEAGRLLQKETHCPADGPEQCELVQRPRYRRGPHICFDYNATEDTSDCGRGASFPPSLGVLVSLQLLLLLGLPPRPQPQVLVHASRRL
Sequence (Q9NY47 1002-1150 partner limits assumed): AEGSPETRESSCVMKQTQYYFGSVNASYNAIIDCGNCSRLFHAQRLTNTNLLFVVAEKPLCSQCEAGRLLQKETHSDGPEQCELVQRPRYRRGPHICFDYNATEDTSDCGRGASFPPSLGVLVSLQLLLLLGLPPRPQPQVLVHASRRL
Assay: [3H]gabapentin radioligand binding to membranes from HEK293 stable cell line GKS07
Readout Label: IC50
Express the reported value numerically, then name its unit.

Param item = `CC(C)C[C@H](N)C(=O)O` ; retrieve measured IC50.
0.205 µM

For `CC(C)C[C@@H](N)C(=O)O` then?
152 µM

For CC(C)C[C@H](CN)CC(=O)O [Pregabalin, (S+)-3-isobutyl GABA] then?
0.096 µM

For `N[C@@H](Cc1ccccc1)C(=O)O` then?
2.96 µM
